Tested on: MT4
Assay: Cytotoxicity against human MT4 cells assessed as reduction in cell viability incubated for 5 days by MTT assay
Conditions: mt4, 120 h
Exercise: state measured CC50 for each of the compounds provided.
One number for each entry, in µM.

COc1ccc(N(C)C(=O)[C@H](Cc2cc(F)cc(F)c2)NC(=O)CN2CC(=O)N(CC(=O)N[C@@H](Cc3cc(F)cc(F)c3)C(=O)N(C)c3ccc(OC)cc3)CC2=O)cc1 : 13.3
COc1ccc(N(C)C(=O)[C@H](Cc2ccccc2)NC(=O)CN2CCN(CC(=O)N[C@@H](Cc3cc(F)cc(F)c3)C(=O)N(C)c3ccc(OC)cc3)C(=O)C2)cc1 : 15.5
CN(C(=O)[C@H](Cc1ccccc1)NC(=O)CN1CC(=O)N(CC(=O)N[C@@H](Cc2ccccc2)C(=O)N(C)c2ccccc2)CC1=O)c1ccccc1 : 71.8

List reported CC50 for each of these compounds:
1. COc1ccc(N(C)C(=O)[C@H](Cc2ccccc2)NC(=O)CN2CCN(CC(=O)N[C@@H](Cc3ccccc3)C(=O)N(C)c3ccccc3)CC2=O)cc1
2. CN(C(=O)[C@H](Cc1ccccc1)NC(=O)CN1CCN(CC(=O)N[C@@H](Cc2ccccc2)C(=O)N(C)c2ccccc2)C(=O)C1)c1ccccc1

32.4
32.6

---

Assay: in vitro
Conditions: human, MT4 cells
Description: Selectivity index, ratio of CC50 for cytotoxicity against human MT4 cells to EC50 for antiviral activity against HIV-1 ROD infected in human MT4 cells
readout.type: selectivity ratio
One number for each entry.

Sure, the documented selectivity ratio for "CN(C(=O)[C@H](Cc1ccccc1)NC(=O)CN1CC(=O)N(CC(=O)N[C@@H](Cc2ccccc2)C(=O)N(C)c2ccccc2)CC1=O)c1ccccc1" is 2.41

---

Assay: in vitro
Details: human, liver microsomes
Description: Metabolic stability in human liver microsome assessed as parent compound remaining at 100 uM measured after 60 mins by LC-MS/MS analysis
readout.type: remaining at 1 h, 100 µM (%)
Give bare numbers, in %.

COc1ccc(N(C)C(=O)[C@H](Cc2ccccc2)NC(=O)CN2CCN(S(=O)(=O)c3ccc(N)cc3)CC2=O)cc1 : 106

We now examine a further molecule.
Record "COc1ccc(N(C)C(=O)[C@H](Cc2cc(F)cc(F)c2)NC(=O)CN2CC(=O)N(CC(=O)N[C@@H](Cc3cc(F)cc(F)c3)C(=O)N(C)c3ccc(OC)cc3)CC2=O)cc1" , field remaining at 1 h, 100 µM: 105

---

Test: in vitro
Details: human, liver microsomes
readout.type: half-life at 3 h, 100 µM (s)
Answers are plain numbers, in s.

# half-life at 3 h, 100 µM (molecule: "Cc1[nH]c2ccccc2c1CC(=O)N[C@@H](Cc1ccccc1)C(=O)N(C)c1ccccc1" ) is 30

---

Experiment: in vitro
Conditions: human, liver microsomes
Description: Metabolic stability in human liver microsome assessed as parent compound remaining at 100 uM measured after 60 mins in presence of NADPH by LC-MS/MS analysis
Field: remaining at 1 h, 100 µM. Provide a value for each of the compounds that follow.
Numbers only, in %.

COc1ccc(N(C)C(=O)[C@H](Cc2cc(F)cc(F)c2)NC(=O)CN2CC(=O)N(CC(=O)N[C@@H](Cc3cc(F)cc(F)c3)C(=O)N(C)c3ccc(OC)cc3)CC2=O)cc1 : 0

Attention now shifts to the item below.
Sample "COc1ccc(N(C)C(=O)[C@H](Cc2ccccc2)NC(=O)CN2CCN(S(=O)(=O)c3ccc(N)cc3)CC2=O)cc1" ; remaining at 1 h, 100 µM observed: 0.1

---

Test system: MT4
Experiment: Cytotoxicity against human MT4 cells assessed as reduction in cell viability incubated for 5 days by MTT assay
Conditions: mt4, 120 h
readout.type: CC50 (µM)
Answers are plain numbers, in µM.

COc1ccc(N(C)C(=O)[C@H](Cc2cc(F)cc(F)c2)NC(=O)CN2CCN(CC(=O)N[C@@H](Cc3ccccc3)C(=O)N(C)c3ccccc3)CC2=O)cc1 : 17.5

Provide CC50 for all items below, preserving their order.
1. COc1ccc(N(C)C(=O)[C@H](Cc2ccccc2)NC(=O)CN2CCN(CC(=O)N[C@@H](Cc3ccccc3)C(=O)N(C)c3ccc(OC)cc3)C(=O)C2)cc1
2. COc1ccc(N(C)C(=O)[C@H](Cc2ccccc2)NC(=O)CN2CCN(S(=O)(=O)c3ccc(N)cc3)CC2=O)cc1
3. COc1ccc(N(C)C(=O)[C@H](Cc2cc(F)cc(F)c2)NC(=O)CN2CCN(CC(=O)N[C@@H](Cc3ccccc3)C(=O)N(C)c3ccccc3)C(=O)C2)cc1
4. COc1ccc(N(C)C(=O)[C@H](Cc2ccccc2)NC(=O)CN2CCN(CC(=O)N[C@@H](Cc3ccccc3)C(=O)N(C)c3ccccc3)C(=O)C2)cc1
5. COc1ccc(N(C)C(=O)[C@H](Cc2cc(F)cc(F)c2)NC(=O)CN2CCN(CC(=O)N[C@@H](Cc3ccccc3)C(=O)N(C)c3ccc(OC)cc3)C(=O)C2)cc1

[15.7, 119, 12.8, 21.7, 13.5]
